- measured.target: human TAS1R2-A574T/TAS1R3-WT (Homo sapiens, UniProt Q7RTX0+Q8TE23, A574T)
- Sequence (Q8TE23 20-839 A574T): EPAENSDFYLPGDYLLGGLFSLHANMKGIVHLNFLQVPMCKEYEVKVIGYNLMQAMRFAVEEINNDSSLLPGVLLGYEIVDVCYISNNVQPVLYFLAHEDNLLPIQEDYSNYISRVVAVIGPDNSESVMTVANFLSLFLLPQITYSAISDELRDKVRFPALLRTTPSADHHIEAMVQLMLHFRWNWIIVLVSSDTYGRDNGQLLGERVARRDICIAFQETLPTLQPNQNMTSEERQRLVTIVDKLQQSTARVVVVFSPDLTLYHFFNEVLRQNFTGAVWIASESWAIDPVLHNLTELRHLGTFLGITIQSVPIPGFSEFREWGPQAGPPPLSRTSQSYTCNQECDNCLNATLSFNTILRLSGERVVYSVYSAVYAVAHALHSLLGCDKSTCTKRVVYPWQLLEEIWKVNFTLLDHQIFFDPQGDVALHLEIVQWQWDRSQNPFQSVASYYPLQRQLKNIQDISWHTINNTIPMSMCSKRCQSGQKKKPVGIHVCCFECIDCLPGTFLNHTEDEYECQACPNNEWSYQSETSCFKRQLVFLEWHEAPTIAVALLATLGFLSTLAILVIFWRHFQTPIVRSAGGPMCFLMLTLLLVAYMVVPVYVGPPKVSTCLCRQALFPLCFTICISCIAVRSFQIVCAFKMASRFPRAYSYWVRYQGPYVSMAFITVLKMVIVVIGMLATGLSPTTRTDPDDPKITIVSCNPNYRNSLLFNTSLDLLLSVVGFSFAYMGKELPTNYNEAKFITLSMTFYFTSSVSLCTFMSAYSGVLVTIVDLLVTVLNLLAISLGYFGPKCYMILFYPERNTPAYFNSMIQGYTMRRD
- Sequence (Q7RTX0 21-852): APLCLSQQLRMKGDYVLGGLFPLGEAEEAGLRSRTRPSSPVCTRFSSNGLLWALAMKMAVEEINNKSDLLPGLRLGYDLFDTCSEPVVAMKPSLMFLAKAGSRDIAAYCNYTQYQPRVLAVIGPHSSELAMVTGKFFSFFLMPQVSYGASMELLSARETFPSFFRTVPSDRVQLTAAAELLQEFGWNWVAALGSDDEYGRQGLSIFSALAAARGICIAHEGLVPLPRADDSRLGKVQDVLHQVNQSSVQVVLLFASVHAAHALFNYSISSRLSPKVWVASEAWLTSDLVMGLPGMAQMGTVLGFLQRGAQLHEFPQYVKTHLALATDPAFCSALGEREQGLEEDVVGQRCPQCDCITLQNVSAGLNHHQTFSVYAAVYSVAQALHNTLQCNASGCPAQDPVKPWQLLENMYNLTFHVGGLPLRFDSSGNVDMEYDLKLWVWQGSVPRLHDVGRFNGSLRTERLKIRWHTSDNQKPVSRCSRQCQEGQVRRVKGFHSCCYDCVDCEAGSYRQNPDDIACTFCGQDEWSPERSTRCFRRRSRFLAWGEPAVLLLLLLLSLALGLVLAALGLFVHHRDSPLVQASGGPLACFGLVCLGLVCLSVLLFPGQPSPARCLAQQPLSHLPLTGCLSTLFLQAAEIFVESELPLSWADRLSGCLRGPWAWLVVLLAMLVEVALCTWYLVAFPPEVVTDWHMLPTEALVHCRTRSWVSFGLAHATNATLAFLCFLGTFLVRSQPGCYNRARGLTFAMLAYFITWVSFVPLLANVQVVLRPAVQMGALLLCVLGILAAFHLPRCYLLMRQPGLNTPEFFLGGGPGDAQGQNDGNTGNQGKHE
- assay: Calcium mobilisation assay, TAS1R2 variant A574T with TAS1R3-WT
pEC50: −log10 of the molar value.
quantity: pEC50

>  <compound>
C[C@H](CC[C@@H](O[C@@H]1O[C@H](CO[C@@H]2O[C@H](CO)[C@@H](O)[C@H](O)[C@H]2O)[C@@H](O)[C@H](O)[C@H]1O[C@@H]1O[C@H](CO)[C@@H](O)[C@H](O)[C@H]1O)C(C)(C)O)[C@H]1CC[C@@]2(C)[C@@H]3CC=C4[C@@H](CC[C@H](O[C@@H]5O[C@H](CO[C@@H]6O[C@H](CO)[C@@H](O)[C@H](O)[C@H]6O)[C@@H](O)[C@H](O)[C@H]5O)C4(C)C)[C@]3(C)[C@H](O)C[C@]12C [Mogroside V, mogroside V]

>  <pEC50>
4.78

$$$$

P: COC(=O)[C@H](Cc1ccccc1)NC(=O)[C@H](CC(=O)O)NCCC(C)(C)C
Q: CC1=CC(=O)NS(=O)(=O)O1
R: COc1ccc(CCC(=O)c2c(O)cc(O[C@@H]3O[C@H](CO)[C@@H](O)[C@H](O)[C@H]3O[C@@H]3O[C@@H](C)[C@H](O)[C@@H](O)[C@H]3O)cc2O)cc1O [NHDC, neohesperidin dihydrochalcone]
## Task Sort the 3 compounds by pEC50; largest first, smallest last. List the labels according to the requested ordering.
## Result P, R, Q
(P: 6.14, R: 4.13, Q: 3.18)

----------
- measured.target: human TAS1R2-WT/TAS1R3-C757R (Homo sapiens, UniProt Q7RTX0+Q8TE23, C757R)
- Construct: expressed in transfected cells; host or cells: HEK293T stably expressing Gα16gust44
- Sequence (Q8TE23 20-839): as the sequence (Q8TE23 20-839 A574T) above, with T555A counted along it
- Sequence (Q7RTX0 21-852 C757R): as the sequence (Q7RTX0 21-852) above, with C737R counted along it
- assay: Calcium mobilisation assay, TAS1R2-WT with TAS1R3 variant C757R
- Assay type: cell-based
- condition.info: read-out: EC50
- Excerpt: The coding sequences for TAS1R2 and TAS1R3 were commercially synthesised, and the human codon was optimised for expression in human cells. […] The HEK293T cells were kindly provided by Jay P. Slack (Givaudan Flavors Corporation; Cincinnati, OH, USA). […] The Ca^2+ changes were expressed as fractional changes in fluorescent light intensity: ΔF/F = (F − F0)/F0, where F was the fluorescent light intensity at each point, and F0 was the value of emitted fluorescent light prior to stimulus application. […]
quantity: EC50 (µM)

Below, 2 compounds whose answers are already recorded.
>  <compound>
O=S(=O)(O)NC1CCCCC1 [Cyclamate, cyclamate]

>  <quantity>
EC50

>  <observed.value>
1150

$$$$
>  <compound>
C[C@H](CC[C@@H](O[C@@H]1O[C@H](CO[C@@H]2O[C@H](CO)[C@@H](O)[C@H](O)[C@H]2O)[C@@H](O)[C@H](O)[C@H]1O[C@@H]1O[C@H](CO)[C@@H](O)[C@H](O)[C@H]1O)C(C)(C)O)[C@H]1CC[C@@]2(C)[C@@H]3CC=C4[C@@H](CC[C@H](O[C@@H]5O[C@H](CO[C@@H]6O[C@H](CO)[C@@H](O)[C@H](O)[C@H]6O)[C@@H](O)[C@H](O)[C@H]5O)C4(C)C)[C@]3(C)[C@H](O)C[C@]12C [Mogroside V, mogroside V]

>  <quantity>
EC50

>  <observed.value>
21.7

$$$$

P: COc1ccc(CCC(=O)c2c(O)cc(O[C@@H]3O[C@H](CO)[C@@H](O)[C@H](O)[C@H]3O[C@@H]3O[C@@H](C)[C@H](O)[C@@H](O)[C@H]3O)cc2O)cc1O [NHDC, neohesperidin dihydrochalcone]
Q: CC1=CC(=O)NS(=O)(=O)O1 [Acesulfame K, acesulfame K]
## Task Which entry has a larger number for EC50, P or Q ? The response must carry the label of the picked entry.
## Result Q
(Q: 468 µM, P: 36.5 µM)

Origin of values: paper PMC11945486
